The measurements presented in this section are drawn from ChEMBL document CHEMBL4376803.

system: Enterococcus faecalis; test: Antibacterial activity against Enterococcus faecalis ATCC 29212 after 24 hrs; type: functional; settings: ATCC 29212, 24 h
Square brackets hold non-standard residues; d marks the D form. Peptide text beside a SMILES is read from it. Orn = NCCC[C@H](N)C(=O)O
Value type: MIC

Query block: Supply reported MIC belonging to this molecule: CC(C)C[C@@H]1NC(=O)[C@H](CCCN)NC(=O)[C@H](C(C)C)NC(=O)[C@@H]2CCCN2C(=O)[C@@H](Cc2ccccc2)NC(=O)[C@H](CC(C)C)NC(=O)[C@H](CCCN)NC(=O)[C@H](C(C)C)NC(=O)[C@@H]2CCCN2C(=O)[C@@H](Cc2ccccc2)NC1=O (cyclo(V[Orn]L[dF]PV[Orn]L[dF]P))
Result block: 8 µg/mL

Query block: Supply reported MIC belonging to this molecule: NCCC[C@@H]1NC(=O)[C@H](C23CC4CC(CC(C4)C2)C3)NC(=O)[C@@H]2CCCN2C(=O)[C@@H](Cc2ccccc2)NC(=O)[C@H](C23CC4CC(CC(C4)C2)C3)NC(=O)[C@H](CCCN)NC(=O)[C@H](C23CC4CC(CC(C4)C2)C3)NC(=O)[C@@H]2CCCN2C(=O)[C@@H](Cc2ccccc2)NC(=O)[C@H](C23CC4CC(CC(C4)C2)C3)NC1=O
Result block: > 64 µg/mL

Query block: Supply reported MIC belonging to this molecule: NCCC[C@@H]1NC(=O)[C@H](C23CC4CC(CC(C4)C2)C3)NC(=O)[C@H](CCCN)NC(=O)[C@@H]2CCCN2C(=O)[C@@H](Cc2ccccc2)NC(=O)[C@H](CCCN)NC(=O)[C@H](C23CC4CC(CC(C4)C2)C3)NC(=O)[C@H](CCCN)NC(=O)[C@@H]2CCCN2C(=O)[C@@H](Cc2ccccc2)NC1=O
Result block: 8 µg/mL

Query block: Supply reported MIC belonging to this molecule: CC(C)C[C@@H]1NC(=O)[C@H](CCCN)NC(=O)[C@H](C(C)C)NC(=O)[C@@H]2CCCN2C(=O)[C@@H](Cc2ccccc2)NC(=O)[C@H](CC(C)C)NC(=O)[C@H](CCCN)NC(=O)[C@H](C(C)C)NC(=O)[C@H]2CC[C@H](OCc3ccccc3)[C@@H](CNC1=O)O2
Result block: 16 µg/mL

Query block: Supply reported MIC belonging to this molecule: CC(C)[C@@H]1NC(=O)[C@H](CCCN)NC(=O)[C@@H]2CCCN2C(=O)[C@@H](Cc2ccccc2)NC(=O)[C@H](CCCN)NC(=O)[C@@H](C(C)C)NC(=O)[C@H](CCCN)NC(=O)[C@@H]2CCCN2C(=O)[C@@H](Cc2ccccc2)NC(=O)[C@H](CCCN)NC1=O
Result block: > 64 µg/mL

----------
experiment: Therapeutic index, ratio of HD100 for hemolytic activity in human erythrocytes to MIC against methicillin-resistant Staphylococcus aureus ATCC 4330; type: toxicity, cell-based; details: read-out: TI
Square brackets hold non-standard residues; d marks the D form. Peptide text beside a SMILES is read from it. Orn = NCCC[C@H](N)C(=O)O
Value type: selectivity ratio
Respond using a number only.

Query block: Supply reported selectivity ratio belonging to this molecule: CC(C)C[C@@H]1NC(=O)[C@H](CCCN)NC(=O)[C@H](C(C)C)NC(=O)[C@@H]2CCCN2C(=O)[C@@H](Cc2ccccc2)NC(=O)[C@H](CC(C)C)NC(=O)[C@H](CCCN)NC(=O)[C@H](C(C)C)NC(=O)[C@@H]2CCCN2C(=O)[C@@H](Cc2ccccc2)NC1=O (cyclo(L[dF]PV[Orn]L[dF]PV[Orn]))
Result block: 7.8

----------
test: Hemolytic activity in sheep erythrocytes; type: ADME, cell-based, Ovis aries, Erythrocyte
Square brackets hold non-standard residues; d marks the D form. Peptide text beside a SMILES is read from it. Orn = NCCC[C@H](N)C(=O)O
Value type: HC50

Query block: Supply reported HC50 belonging to this compound: NCCC[C@@H]1NC(=O)[C@H](CCCN)NC(=O)[C@@H]2CCCN2C(=O)[C@@H](Cc2ccccc2)NC(=O)[C@H](CCCN)NC(=O)[C@H](CCCN)NC(=O)[C@H](CCCN)NC(=O)[C@@H]2CCCN2C(=O)[C@@H](Cc2ccccc2)NC(=O)[C@H](CCCN)NC1=O
Result block: > 200 µg/mL

Query block: Supply reported HC50 belonging to this compound: CC(C)C[C@@H]1NC(=O)[C@H](CCCN)NC(=O)[C@H](C(C)C)NC(=O)[C@@H]2CCCN2C(=O)[C@@H](Cc2ccccc2)NC(=O)[C@H](CC(C)C)NC(=O)[C@H](CCCN)NC(=O)[C@H](C(C)C)NC(=O)[C@@H]2CCCN2C(=O)[C@@H](Cc2ccccc2)NC1=O (cyclo(L[dF]PV[Orn]L[dF]PV[Orn]))
Result block: 25 to 35 µg/mL

----------
system: Pseudomonas aeruginosa; test: Antibacterial activity against Pseudomonas aeruginosa ATCC 27853 incubated for 24 hrs; assay type: functional; conditions: ATCC 27853, 24 h
Square brackets hold non-standard residues; d marks the D form. Peptide text beside a SMILES is read from it. Orn = NCCC[C@H](N)C(=O)O
Value type: MIC (µg/mL)
Express it in µg/mL; write the number only.

Query block: Supply reported MIC belonging to this compound: CC(C)C[C@@H]1NC(=O)[C@H](CCCN)NC(=O)[C@H](C(C)C)NC(=O)[C@@H]2CCCN2C(=O)[C@@H](Cc2ccccc2)NC(=O)[C@H](CC(C)C)NC(=O)[C@H](CCCN)NC(=O)[C@H](C(C)C)NC(=O)[C@@H]2CCCN2C(=O)[C@@H](Cc2ccccc2)NC1=O (cyclo(V[Orn]L[dF]PV[Orn]L[dF]P))
Result block: 64

Query block: Supply reported MIC belonging to this compound: NCCC[C@@H]1NC(=O)[C@H](C23CC4CC(CC(C4)C2)C3)NC(=O)[C@H](CCCN)NC(=O)[C@@H]2CCCN2C(=O)[C@@H](Cc2ccccc2)NC(=O)[C@H](CCCN)NC(=O)[C@H](C23CC4CC(CC(C4)C2)C3)NC(=O)[C@H](CCCN)NC(=O)[C@@H]2CCCN2C(=O)[C@@H](Cc2ccccc2)NC1=O
Result block: 16

----------
assay: Therapeutic index, ratio of HD100 for hemolytic activity in human RBC to MIC against Escherichia coli UB1005; format: toxicity; conditions: human red blood cells, read-out: TI
Square brackets hold non-standard residues; d marks the D form. Peptide text beside a SMILES is read from it. Orn = NCCC[C@H](N)C(=O)O
Can you tell me selectivity ratio for the items I'm about to list?
Respond using a number only.

Query block: Supply reported selectivity ratio belonging to this compound: CC(C)C[C@@H]1NC(=O)[C@H](CCCN)NC(=O)[C@H](C(C)C)NC(=O)[C@@H]2CCCN2C(=O)[C@@H](Cc2ccccc2)NC(=O)[C@H](CC(C)C)NC(=O)[C@H](CCCN)NC(=O)[C@H](C(C)C)NC(=O)[C@@H]2CCCN2C(=O)[C@@H](Cc2ccccc2)NC1=O (cyclo(L[dF]PV[Orn]L[dF]PV[Orn]))
Result block: 2

Query block: Supply reported selectivity ratio belonging to this compound: CC(C)C[C@@H]1NC(=O)[C@H](CCCCN)NC(=O)[C@H](C(C)C)NC(=O)[C@@H]2CCCN2C(=O)[C@@H](Cc2ccc(O)cc2)NC(=O)[C@H](CC(C)C)NC(=O)[C@H](CCCCN)NC(=O)[C@H](C(C)C)NC(=O)[C@H](CCCCN)NC(=O)[C@H](CC(C)C)NC(=O)[C@@H]2CCCN2C(=O)[C@@H](Cc2ccc(O)cc2)NC(=O)[C@H](C(C)C)NC(=O)[C@@H](CCCCN)NC1=O (cyclo(KL[dK]V[dY]PLKVKL[dY]PV))
Result block: 32

----------
experiment: Therapeutic index, ratio of HD100 for hemolytic activity in human RBC to MIC against Enterococcus faecalis; assay type: toxicity; conditions: human red blood cells, read-out: TI
Square brackets hold non-standard residues; d marks the D form. Peptide text beside a SMILES is read from it.
Value type: selectivity ratio

Query block: Supply reported selectivity ratio belonging to this compound: CC(C)C[C@@H]1NC(=O)[C@H](CCCCN)NC(=O)[C@H](C(C)C)NC(=O)[C@@H]2CCCN2C(=O)[C@@H](Cc2ccc(O)cc2)NC(=O)[C@H](CC(C)C)NC(=O)[C@H](CCCCN)NC(=O)[C@H](C(C)C)NC(=O)[C@H](CCCCN)NC(=O)[C@H](CC(C)C)NC(=O)[C@H](CCCCN)NC(=O)[C@@H]2CCCN2C(=O)[C@@H](Cc2ccc(O)cc2)NC(=O)[C@H](CCCCN)NC(=O)[C@H](C(C)C)NC(=O)[C@H](CCCCN)NC1=O (cyclo(VKLKVK[dY]PKLKVKL[dY]P))
Result block: > 50

----------
experiment: Hemolytic activity against RBC (unknown origin) at 100 ul after 4 hrs; format: ADME, cell-based, Erythrocyte; conditions: red blood cells (unknown origin)
Square brackets hold non-standard residues; d marks the D form. Peptide text beside a SMILES is read from it. Orn = NCCC[C@H](N)C(=O)O
Value type: HC50 at 4 h

Query block: Supply reported HC50 at 4 h belonging to this compound: CC(C)C[C@@H]1NC(=O)[C@H](CCCN)NC(=O)[C@H](C(C)C)NC(=O)[C@@H]2CCCN2C(=O)[C@@H](Cc2ccccc2)NC(=O)[C@H](CC(C)C)NC(=O)[C@H](CCCN)NC(=O)[C@H](C(C)C)NC(=O)[C@@H]2CCCN2C(=O)[C@@H](Cc2ccccc2)NC1=O (cyclo(L[dF]PV[Orn]L[dF]PV[Orn]))
Result block: 5 to 31.2 µg/mL

Query block: Supply reported HC50 at 4 h belonging to this compound: CC(C)C[C@@H]1NC(=O)[C@H](CCCN)NC(=O)[C@H](C(C)C)NC(=O)[C@@H]2CCCN2C(=O)[C@@H](Cc2cn(Cc3cccc4ccccc34)nn2)NC(=O)[C@H](CC(C)C)NC(=O)[C@@H](CCCN)NC(=O)[C@H](C(C)C)NC(=O)[C@@H]2CCCN2C(=O)[C@@H](Cc2ccccc2)NC1=O
Result block: 5 to 10 µg/mL

Query block: Supply reported HC50 at 4 h belonging to this compound: CC(C)C[C@@H]1NC(=O)[C@H](CCCN)NC(=O)[C@H](C(C)C)NC(=O)[C@@H]2CCCN2C(=O)[C@@H](Cc2c[nH]nn2)NC(=O)[C@H](CC(C)C)NC(=O)[C@@H](CCCN)NC(=O)[C@H](C(C)C)NC(=O)[C@@H]2CCCN2C(=O)[C@@H](Cc2ccccc2)NC1=O
Result block: 45 to 55 µg/mL

Query block: Supply reported HC50 at 4 h belonging to this compound: CC(C)C[C@@H]1NC(=O)[C@H](CCCN)NC(=O)[C@H](C(C)C)NC(=O)[C@@H]2CCCN2C(=O)[C@@H](Cc2c[nH]cn2)NC(=O)[C@H](CC(C)C)NC(=O)[C@@H](CCCN)NC(=O)[C@H](C(C)C)NC(=O)[C@@H]2CCCN2C(=O)[C@@H](Cc2ccccc2)NC1=O
Result block: 90 to 110 µg/mL
